- target-or-system: SERT (Homo sapiens (Human))
- experimental-protocol: SERT inhibition assay (Neurotransmitter Transporter Fluorescence assay)
- Type: cell-based
- measurement-parameters: class symbols; legend in nM/micromolar
result-type: IC50

Example compounds with recorded IC50:
COc1ccc([C@]23CCN(C)[C@H]2CC(=O)[C@H]2O[C@H]23)cc1OC: < 50 nM
COc1ccc([C@]23CCN(C)[C@H]2CC2(CCO2)CC3)cc1OC (stereo partly shown): < 50 nM
COc1ccc([C@]23CCN(C)[C@H]2[C@@H]2CC[C@H]3CC2=O)cc1OC: 100 to 500 nM

Below: the item to evaluate.
Look up IC50 for this compound: COc1ccc([C@@]23CC[C@@H](N4CCCC4)C[C@@H]2N(C)CC3)cc1OC
100 to 500 nM

====

- target-or-system: SERT (Homo sapiens (Human))
- experimental-protocol: SERT inhibition assay (Neurotransmitter Transporter Fluorescence assay)
- Format: cell-based
- measurement-parameters: class symbols; legend in nM/micromolar
result-type: IC50

Example compounds with recorded IC50:
COc1ccc([C@@]23CC[C@@H](N4CCCC4=O)C[C@@H]2N(C)CC3)cc1OC: < 50 nM
COc1ccc([C@@]23CCN(C)[C@@H]2CC(=O)[C@@H]2O[C@@H]23)cc1OC: 100 to 500 nM
COc1ccc([C@@]23CC[C@H](N4CCCC4)C[C@@H]2N(C)CC3)cc1OC: 500 to 1000 nM

Look up IC50 for this compound: COc1ccc([C@@]23CCN(C)[C@@H]2CC(=O)C[C@@H]3c2ccccc2)cc1OC
> 1000 nM

====

- target-or-system: SERT (Homo sapiens (Human))
- experimental-protocol: SERT inhibition assay (Neurotransmitter Transporter Fluorescence assay)
- Assay type: cell-based
- measurement-parameters: class symbols; legend in nM/micromolar
I'd be grateful if you could share measured IC50 for these entries.

Example compounds with recorded IC50:
COc1ccc([C@]23CCC(=O)C[C@H]2N(C(C)C)CC3)cc1OC [Compound 227]: 500 to 1000 nM
COc1ccc([C@@]23CC[C@H](N4CCCC4=O)C[C@@H]2N(C)CC3)cc1OC [Compound 111]: < 50 nM

Please report IC50 for every entry that follows.
1. COc1ccc([C@@]23CCN(C)[C@@H]2[C@@H]2C[C@H]3CC2=O)cc1OC [Compound 216]
2. COc1ccc([C@@]23CC[C@@H](n4ccc(C(F)(F)F)n4)C[C@@H]2N(C)CC3)cc1OC [Compound 115]
3. COc1ccc([C@]23CCN(C)[C@H]2[C@H]2C[C@@H]3CC2=O)cc1OC [Compound 215]
4. COc1ccc([C@]23CCN(C)[C@H]2CC(=O)C=C3c2ccccc2)cc1OC (racemic) [Compound 201]
5. CCN1CC[C@@]2(c3ccc(OC)c(OC)c3)CCC(=O)C[C@@H]12 [Compound 224]
6. COc1ccc([C@@]23CC[C@H](N4CCC4)C[C@@H]2N(C)CC3)cc1OC [Compound 104]

1. 50 to 100 nM
2. < 50 nM
3. 50 to 100 nM
4. > 1000 nM
5. < 50 nM
6. 100 to 500 nM

====

- target-or-system: SERT (Homo sapiens (Human), UniProt P31645)
- Sequence (P31645 whole entry, species assumed): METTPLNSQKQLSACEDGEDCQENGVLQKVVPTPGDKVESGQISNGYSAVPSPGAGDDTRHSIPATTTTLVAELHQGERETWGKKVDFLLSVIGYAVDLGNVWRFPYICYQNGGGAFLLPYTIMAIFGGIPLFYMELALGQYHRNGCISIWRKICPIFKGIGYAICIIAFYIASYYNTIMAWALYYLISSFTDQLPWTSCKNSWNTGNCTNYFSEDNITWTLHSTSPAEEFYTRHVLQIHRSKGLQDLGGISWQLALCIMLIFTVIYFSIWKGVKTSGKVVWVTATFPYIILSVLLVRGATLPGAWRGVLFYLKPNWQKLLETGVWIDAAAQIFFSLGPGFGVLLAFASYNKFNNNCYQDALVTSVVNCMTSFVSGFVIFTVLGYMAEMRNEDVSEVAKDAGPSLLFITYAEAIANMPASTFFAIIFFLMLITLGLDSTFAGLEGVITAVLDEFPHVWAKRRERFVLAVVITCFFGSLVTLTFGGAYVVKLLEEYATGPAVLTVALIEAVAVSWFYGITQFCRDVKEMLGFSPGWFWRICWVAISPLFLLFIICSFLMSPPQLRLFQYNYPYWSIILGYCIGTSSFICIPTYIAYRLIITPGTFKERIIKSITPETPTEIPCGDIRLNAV
- experimental-protocol: SERT inhibition assay (Neurotransmitter Transporter Fluorescence assay)
- Assay type: cell-based
- measurement-parameters: class symbols; legend in nM/micromolar
result-type: IC50

Please report IC50 for every entry that follows.
1. COc1ccc([C@@]23CC[C@@H](N4CCC4)C[C@@H]2N(C)CC3)cc1OC
2. COc1ccc([C@]23CCN(C)[C@H]2CC2(CCCO2)CC3)cc1OC (some centres unmarked)
3. COc1ccc([C@@]23CC[C@H](n4cccn4)C[C@@H]2N(C)CC3)cc1OC
4. COc1ccc([C@@]23CCN(C)[C@@H]2[C@H]2C[C@@H]3CC2=O)cc1OC
5. COc1ccc([C@]23CCN(C)[C@H]2[C@@H]2CCC[C@H]3CC2=O)cc1OC
6. COc1ccc([C@@]23CCN(C)[C@@H]2[C@H]2CCC[C@@H]3CC2=O)cc1OC

500 to 1000 nM
< 50 nM
< 50 nM
100 to 500 nM
< 50 nM
100 to 500 nM

Please report IC50 for every entry that follows.
1. COc1ccc([C@@]23CC[C@@H](n4cccn4)C[C@@H]2N(C)CC3)cc1OC
2. COc1ccc([C@@]23CC[C@@H](N4CCOCC4)C[C@@H]2N(C)CC3)cc1OC

["< 50 nM", "100 to 500 nM"]
